The measurements presented in this section are drawn from patent US20070110804A1.

- Method summary: Formation of a low-solubility polymer/drug complex (gel) on mixing polyanion sodium salt with the salt of the active ingredient
- Condition context: mixing sodium salt of Dextran Sulfate-500 and salt of the active ingredient
Measurement kind: complex of low solubility forms (yes/no), polymer Dextran Sulfate-500

- Compound string: "COc1cccc2c1C(=O)c1c(O)c3c(c(O)c1C2=O)C[C@@](O)(C(=O)CO)C[C@@H]3O[C@H]1C[C@H](N)[C@H](O)[C@H](C)O1"
  Reported measurement: "yes"
- Compound string: "C[C@H]1c2cccc(O)c2C(=O)C2=C(O)[C@]3(O)C(=O)C(C(N)=O)=C(O)[C@@H](N(C)C)[C@@H]3[C@@H](O)[C@@H]21"
  Reported measurement: "yes"
- Compound string: "COc1ccc2c3c1O[C@H]1C(=O)CC[C@@]4(O)[C@@H](C2)N(C)CC[C@]314"
  Reported measurement: "yes"
